protocol-text: In vivo clearance after single intravenous infusion (plasma ELISA)
Design: species or system New Zealand white rabbits
assay-context: New Zealand white, rabbit, plasma, iv, single i.v. infusion, read-out: half-life of antigen clearance in plasma, first phase
Ends that are not written are not given here.
reported-property: half-life (min)

substance	reported-property	meas-value
RPPGF [RPPGF, Arg-Pro-Pro-Gly-Phe]	half-life	2.8
